Every entry's value here was drawn from paper PMC5412315.

- tgt: proteasome in MDA-MB-231 cells (Homo sapiens)
- Construct: endogenous in cells
- runDescription: Proteasome activity in cell extracts of treated MDA-MB-231 cells (fluorogenic substrates)
- testConditions: MDA-MB-231 cells treated 10 h, cell extract, Suc-LLVY-AMC; read-out: IC50, chymotrypsin-like activity of proteasome
metricName: IC50 (µM)
Give bare numbers, in µM.

Value lookup for IC50; key = COc1cc(O)c2c(c1)oc(=O)c1c3cc(O)c(O)cc3oc21
27.8

###

- tgt: proteasome in T47D cells (Homo sapiens)
- Construct: endogenous in cells
- Sequence (P28074 60-263): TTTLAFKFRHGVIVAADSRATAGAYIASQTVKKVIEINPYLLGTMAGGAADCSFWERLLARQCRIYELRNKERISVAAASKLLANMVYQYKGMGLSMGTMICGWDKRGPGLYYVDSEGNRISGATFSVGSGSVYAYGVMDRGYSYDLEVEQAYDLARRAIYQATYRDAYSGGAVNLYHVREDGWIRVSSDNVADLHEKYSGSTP
- Sequence (P28072 1-239 partner): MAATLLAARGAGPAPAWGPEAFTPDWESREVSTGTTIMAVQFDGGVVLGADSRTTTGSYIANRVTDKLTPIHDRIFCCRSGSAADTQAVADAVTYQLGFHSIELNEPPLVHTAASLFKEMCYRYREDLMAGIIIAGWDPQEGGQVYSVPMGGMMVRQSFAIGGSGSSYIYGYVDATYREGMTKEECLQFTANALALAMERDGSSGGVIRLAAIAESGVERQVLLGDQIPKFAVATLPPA
- Sequence (Q99436 44-277 partner): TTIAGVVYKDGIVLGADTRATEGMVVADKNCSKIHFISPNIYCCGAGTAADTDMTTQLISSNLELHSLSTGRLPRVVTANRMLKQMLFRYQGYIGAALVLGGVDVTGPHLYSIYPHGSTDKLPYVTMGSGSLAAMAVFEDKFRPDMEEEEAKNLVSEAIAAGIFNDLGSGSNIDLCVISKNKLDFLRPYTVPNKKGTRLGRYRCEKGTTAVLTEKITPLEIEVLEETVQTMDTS
- runDescription: Proteasome activity in cell extracts of treated T47D cells (fluorogenic substrates)
- testConditions: T47D cells treated 10 h, cell extract, Suc-LLVY-AMC; read-out: IC50, chymotrypsin-like activity of proteasome
metricName: IC50 (µM)
One number for each entry, in µM.

Value lookup for IC50; key = COc1cc(O)c2c(c1)oc(=O)c1c3cc(O)c(O)cc3oc21
19.5

###

- tgt: 26S proteasome purified from MDA-MB-231 cells (Homo sapiens, UniProt P28074)
- Construct: Human 26S proteasome was purified from 8 × 10^6 of MDA-MB-231 cells; endogenous in cells; purified with The Rapid 26S Proteasome Purification Kit (J4310, UBPBio)
- runDescription: Proteasome activity in vitro, purified 26S proteasome
- testConditions: Suc-LLVY-AMC, 1 h, read-out: IC50, chymotrypsin-like activity
metricName: IC50 (µM)
One number for each entry, in µM.

Can you look up IC50 on 26S proteasome purified from MDA-MB-231 cells (Homo sapiens, UniProt P28074) for COc1cc(O)c2c(c1)oc(=O)c1c3cc(O)c(O)cc3oc21 ?
9.97

###

- tgt: proteasome in MDA-MB-468 cells (Homo sapiens, UniProt P28074)
- Construct: endogenous in cells
- runDescription: Proteasome activity in cell extracts of treated MDA-MB-468 cells (fluorogenic substrates)
- testConditions: MDA-MB-468 cells treated 10 h, cell extract, Suc-LLVY-AMC; read-out: IC50, chymotrypsin-like activity of proteasome
metricName: pIC50
One number for each entry, as −log10 of the molar value.

Value lookup for pIC50; key = COc1cc(O)c2c(c1)oc(=O)c1c3cc(O)c(O)cc3oc21
4.89

###

- tgt: bovine 20S proteasome (Bos taurus, UniProt Q32KL2)
metricName: pIC50
Numbers only, as −log10 of the molar value.

Value lookup for pIC50; key = COc1cc(O)c2c(c1)oc(=O)c1c3cc(O)c(O)cc3oc21 [Wedelolactone]
5.21
